Target entity: T1, human IL4 (human, UniProt P05112 25-153, biotinylated in the SPR and competition assays (sites not given))
T1 sequence: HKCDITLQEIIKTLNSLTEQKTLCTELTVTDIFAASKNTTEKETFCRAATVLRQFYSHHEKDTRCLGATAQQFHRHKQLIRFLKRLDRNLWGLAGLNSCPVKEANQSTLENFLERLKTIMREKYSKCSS
Procedure details: cell-based or functional assay
Test readout: A549/TARC IL4 IC50 (nM)

Binder: C01_6G9_V1_C06_53G6_V1 (designed binder, bispecific IL13/IL4 ankyrin repeat protein with (GGGGS)4 linker; also called bispecific AR protein) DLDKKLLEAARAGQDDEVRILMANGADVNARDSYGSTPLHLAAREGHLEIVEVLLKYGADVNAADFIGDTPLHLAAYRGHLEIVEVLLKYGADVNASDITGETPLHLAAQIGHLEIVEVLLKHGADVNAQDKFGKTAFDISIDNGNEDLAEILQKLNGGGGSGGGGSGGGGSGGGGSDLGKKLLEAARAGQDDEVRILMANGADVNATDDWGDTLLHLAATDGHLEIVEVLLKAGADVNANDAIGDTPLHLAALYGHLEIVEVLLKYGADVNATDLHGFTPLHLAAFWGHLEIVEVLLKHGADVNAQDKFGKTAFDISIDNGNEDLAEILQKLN
Reading: 0.024

Binder: C01_6G9_V1_C06_28E5_V1 (designed binder, bispecific IL13/IL4 ankyrin repeat protein with (GGGGS)4 linker; also called bispecific AR protein) DLDKKLLEAARAGQDDEVRILMANGADVNARDSYGSTPLHLAAREGHLEIVEVLLKYGADVNAADFIGDTPLHLAAYRGHLEIVEVLLKYGADVNASDITGETPLHLAAQIGHLEIVEVLLKHGADVNAQDKFGKTAFDISIDNGNEDLAEILQKLGGGGSGGGGSGGGGSGGGGSRSDLGKKLLEAARAGQDDEVRILMANGADVNAADDSGITPLHLAAEDGHLEIVEVLLKAGADVNAQDNLGDTPLHLAAWTGHLEIVEVLLKAGADVNAYDISGITPLHLAAFYGHLEIVEVLLKHGADVNAQDKFGKTAFDISIDNGNEDLAEILQKLN
Reading: 0.033

The origin of these recorded values is patent US20120277143A1.
